Target: human Y2 receptor (human) (UniProt P49146)
Sequence (P49146 whole entry): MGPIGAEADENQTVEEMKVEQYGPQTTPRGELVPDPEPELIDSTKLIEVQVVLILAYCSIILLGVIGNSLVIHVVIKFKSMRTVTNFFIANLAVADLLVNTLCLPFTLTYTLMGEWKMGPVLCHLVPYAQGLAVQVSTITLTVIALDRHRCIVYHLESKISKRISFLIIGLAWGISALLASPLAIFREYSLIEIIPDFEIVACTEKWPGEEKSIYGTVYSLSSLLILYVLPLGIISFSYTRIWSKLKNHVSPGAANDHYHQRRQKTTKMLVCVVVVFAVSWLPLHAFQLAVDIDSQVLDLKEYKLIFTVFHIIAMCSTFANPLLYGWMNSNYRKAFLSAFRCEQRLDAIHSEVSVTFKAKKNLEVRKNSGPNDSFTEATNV
Assay: RBA: [125I]-PYY displacement, hY2R/CHO membranes
Non-standard residues stand in square brackets, D forms with d. *: point of attachment. Cha = N[C@@H](CC1CCCCC1)C(=O)O; Gly(cPr) = N[C@H](C(=O)O)C1CC1; hSer = N[C@@H](CCO)C(=O)O; Isobutyryl = CC(C)C(=O)*; Abu = CC[C@H](N)C(=O)O; Aib = CC(C)(N)C(=O)O; Bz = O=C(c1ccccc1)*
ATTRIBUTE_MEASURED: IC50 Ratio (vs PYY(3-36))
Please reply with the value in numeric form only.

Check out these entries, answers already filled in.
[
  {
    "BINDER": "Isobutyryl-R[Abu][Cha][Cha]N[Abu][Aib]TRQR[Cha]-NH2 (SMILES CC[C@H](NC(=O)[C@H](CCCNC(=N)N)NC(=O)C(C)C)C(=O)N[C@@H](CC1CCCCC1)C(=O)N[C@@H](CC1CCCCC1)C(=O)N[C@@H](CC(N)=O)C(=O)N[C@@H](CC)C(=O)NC(C)(C)C(=O)N[C@H](C(=O)N[C@@H](CCCNC(=N)N)C(=O)N[C@@H](CCC(N)=O)C(=O)N[C@@H](CCCNC(=N)N)C(=O)N[C@@H](CC1CCCCC1)C(N)=O)[C@@H](C)O) [Isobutanoyl-[Abu26, Cha27,28,36, Abu30, Aib31]-PYY(25-36)]",
    "IC50 Ratio (vs PYY(3-36))": 20
  },
  {
    "BINDER": "Isobutyryl-R[Abu][Cha][Gly(cPr)]NL[Aib]TRQR[Cha]-NH2 (SMILES CC[C@H](NC(=O)[C@H](CCCNC(=N)N)NC(=O)C(C)C)C(=O)N[C@@H](CC1CCCCC1)C(=O)N[C@H](C(=O)N[C@@H](CC(N)=O)C(=O)N[C@@H](CC(C)C)C(=O)NC(C)(C)C(=O)N[C@H](C(=O)N[C@@H](CCCNC(=N)N)C(=O)N[C@@H](CCC(N)=O)C(=O)N[C@@H](CCCNC(=N)N)C(=O)N[C@@H](CC1CCCCC1)C(N)=O)[C@@H](C)O)C1CC1) [Isobutanoyl-[Abu26, Cha27,36, Gly(cPr)28, Aib31]-PYY(25-36)]",
    "IC50 Ratio (vs PYY(3-36))": 52
  },
  {
    "BINDER": "Ac-S[dP]R[hSer][Cha][Aib]NL[Aib]TRQR[Cha]-NH2 (SMILES CC(=O)N[C@@H](CO)C(=O)N1CCC[C@@H]1C(=O)N[C@@H](CCCNC(=N)N)C(=O)N[C@@H](CCO)C(=O)N[C@@H](CC1CCCCC1)C(=O)NC(C)(C)C(=O)N[C@@H](CC(N)=O)C(=O)N[C@@H](CC(C)C)C(=O)NC(C)(C)C(=O)N[C@H](C(=O)N[C@@H](CCCNC(=N)N)C(=O)N[C@@H](CCC(N)=O)C(=O)N[C@@H](CCCNC(=N)N)C(=O)N[C@@H](CC1CCCCC1)C(N)=O)[C@@H](C)O) [Ac-[D-Pro24, Hse26, Cha27,36, Aib28,31]-PYY(23-36)]",
    "IC50 Ratio (vs PYY(3-36))": 11
  }
]

## Task Field request: IC50 Ratio (vs PYY(3-36)) | item: Bz-RN[Cha][Cha]NL[Aib]TRQR[Cha]-NH2 (SMILES CC(C)C[C@H](NC(=O)[C@H](CC(N)=O)NC(=O)[C@H](CC1CCCCC1)NC(=O)[C@H](CC1CCCCC1)NC(=O)[C@H](CC(N)=O)NC(=O)[C@H](CCCNC(=N)N)NC(=O)c1ccccc1)C(=O)NC(C)(C)C(=O)N[C@H](C(=O)N[C@@H](CCCNC(=N)N)C(=O)N[C@@H](CCC(N)=O)C(=O)N[C@@H](CCCNC(=N)N)C(=O)N[C@@H](CC1CCCCC1)C(N)=O)[C@@H](C)O) [Benzoyl-[Asn26, Cha27,28,36, Aib31]-PYY(25-36)]
## Result 19
